- Test system: MS2 coat protein
- MEASUREMENT NOTES: apparent KD of MS2 coat protein; higher = weaker reporter binding
- EXPERIMENTAL SETUP: Eterna round: R107; input ligand: arginine 13.2 mM
Here the recorded apparent KD of MS2 coat protein is given for each entry.
Write the numeric value and follow it with the unit.

# example entries with known answers
# PRIMARY SEQUENCE, apparent KD of MS2 coat protein
records = [
    ("GGCGCGAGCCAACAUGAGGAUCACCCAUGUCGAGGACCGGUACGGCCGCCACUCGAACGAGUGAAGCGCGCGCGCGCGCGCGCGC [Uaa]", "32.4 nM"),
    ("CCUAUGCAGUCGGCCGCCACUGAACAUGAGGAUCACCCAUGUAAUUAAAAUUAAGAUCCUGAAAUCAGGACCGGGACUGUAUAGG [Ex Tryptophan B 4]", "25.5 nM"),
    ("ACAUGAGGAUCACCCAUGUACAUCACCCGACGAGGACCGGUACGGCCGCCACUCGGGUAUAUAUUUACAUCGGGUGAUUUUACGU [#23 Tryptophan A Same State]", "21.9 nM"),
]

apparent KD of MS2 coat protein of AAUAUAAUAGACUCGUUUUAGUAUUUGGAACGAGGACCGGUACGGCCGCCACUCGUGAUUUACAUGAGGAUCACCCAUGUUAGCA [JR_SSTryptoA_Sub003] , assay on MS2 coat protein, is 15.5 nM

apparent KD of MS2 coat protein of GGACUAACCAGAAGGAGCGACACAAGCAGAAACUGCAAUCCUCCGCACGAGGAUCACCCGUGUCAGGUAGGUCGCUGGUUAGUCG [ArgBX 28] , assay on MS2 coat protein, is 57.5 nM

apparent KD of MS2 coat protein of AACCGAGGCUAUCCACAAAGAAAAUGUGAUACCAGAAUAAUUUUAUUCCCUUGGCAGCAUGACAUGAGGAUCACCCAUGUGUCUU [SSTheo A #5] , assay on MS2 coat protein, is 29.7 nM

---

- System: MS2 coat protein
- MEASUREMENT NOTES: apparent KD of MS2 coat protein; designed switch direction (-1 OFF switch, 1 ON switch): -1; higher = weaker reporter binding
- EXPERIMENTAL SETUP: Eterna round: R95; input ligand: none
Classify as follows. Reported apparent KD of MS2 coat protein greater than or equal to 30 nM: rule met. Reported apparent KD of MS2 coat protein below: rule not met.

Record excerpt, results attached:
# PRIMARY SEQUENCE, CATEGORY
records = [
    ("GCGCAGUCAGGAUAUGCCGGAUAGGAUCACCCUGUCCAAAGGCAGAAGGGACAUGAGGAUCACCCAUGUGGCGC [e4e Mirror Pins] (puzzle: Exclusion 4)", "rule not met"),
    ("AGGAGUGAAGGAUAUACAUGAGGAUCACCCAUGUGGGAGGAAAGAGGUGAUGGAGAUAGUAGAAGGUCAGGAUG [JR_Exclusion3_Sub005] (puzzle: Exclusion 3)", "rule met"),
]

Asked: Item CUCCUCAUGGCGCCUAAACACAUGAGGAUCACCCAUGUAUAGGCUUUUUGCCGUCUUAUAAUAAAACCGAGGAUGCG [Rianza] (puzzle: Sensor v3, turn-off variant 1) with apparent KD of MS2 coat protein of 30 nM or above?
Given back: rule not met

Asked: Item GGAAAGGUAGGAUAUACGAAGAAAAAGGGUAGAAUAAUAACACAUGAGGAUCACCCAUGUAGAAGGACCAAAGC [Mat - Exclusion 2 - Mod of my Tesla design - D13] (puzzle: Exclusion 2) with apparent KD of MS2 coat protein of 30 nM or above?
Given back: rule not met

Asked: Item AGAUGUAGAUACCGAUCCUACAUGAGGAUCACCCAUGUAGCUAGACGUGCCCGCGUCGCUCGUCAGACUACCAGUAG [salish99_TOv1_r3_090] (puzzle: Sensor v3, turn-off variant 1) with apparent KD of MS2 coat protein of 30 nM or above?
Given back: rule met

Asked: Item AGUACUAUGCGUGCUGACAUGCGUAGUGCAGCAGGUGUUACAUGAGGAUCACCCAUGUCCUCAUUUGCUCGUCUUAU [Mat - Sensor v3 - Turn-off var 2 - D15] (puzzle: Sensor v3, turn-off variant 2) with apparent KD of MS2 coat protein of 30 nM or above?
Given back: rule met

Asked: Item CAGUACUACAAGCUUGGGAACAUGAGGAUCACCCAUGUUCGUCUUAUUGAUCUAGGUACGCUGACGUACCUAGAUCU [JL-sv1-2.17 Brourd mod] (puzzle: Sensor v3, turn-off variant 1) with apparent KD of MS2 coat protein of 30 nM or above?
Given back: rule not met

Asked: Item AAGAACAGAGGAUAUCGCGGGCAGCACAUGAGGAUCACCCAUGUGAUGCUCCGCGGGCCGCGAGAAGGCUGAAAUG [Dizabe] (puzzle: Exclusion 5) with apparent KD of MS2 coat protein of 30 nM or above?
Given back: rule not met

Asked: Item CAUGGAUGUGAGCCGCAUUACAUGAGGAUCACCCAUGUCAACAAGCUUUUUGCUUGUCUUACGCGGCGGCACCAGAA [Getelexe] (puzzle: Sensor v3, turn-off variant 1) with apparent KD of MS2 coat protein of 30 nM or above?
Given back: rule not met

Asked: Item CAGUACUGAGGAUAUACAUGAGGAUCACCCAUGUGUUCCAGCUAGGAAACUAGCUAAAGUAGAAGGCAGUACUG [salish99_ex3_r3_092x] (puzzle: Exclusion 3) with apparent KD of MS2 coat protein of 30 nM or above?
Given back: rule not met
